Hey, just so you know, these numbers are from PubChem BioAssay (NCI).

System: MALME-3M melanoma
Experiment: NCI tumour cell line growth inhibition, 48 h; in the data active = GI50 below about 0.43 µM; inactive = the rest
Would you mind answering with one of these outcomes? active, inactive

Short answer needed: outcome of this test for `COc1cc(-c2nn(-c3cccc(NC(=O)CCN4CCN(c5ccccc5)CC4)c3)cc2-c2ccncc2)ccc1Cl` ?
inactive

Short answer needed: outcome of this test for `CC(C)OP(=O)(O)c1ncc(-c2ccc(C(F)(F)F)cc2)c(NC2CCCCCC2)n1` ?
inactive

Short answer needed: outcome of this test for `CC1(C)N=C(N)N=C(N)N1c1cccc(CCc2ccccc2)c1` ?
inactive

Short answer needed: outcome of this test for `Cc1cc(S(N)(=O)=O)c(S/C(=N\NS(=O)(=O)c2ccccc2)c2ccc(Cl)cc2)cc1Cl` ?
inactive

Short answer needed: outcome of this test for `CN1CC[C@H](c2c(O)cc(O)c3c(=O)cc(-c4ccccc4Cl)oc23)[C@H](O)C1` ?
active

Short answer needed: outcome of this test for COc1cc2c3cc1Oc1c(OC)c(OC)cc4c1C(Cc1ccc(O)c(c1)Oc1ccc(cc1)CC3N(C)CC2)N(C)CC4 (centres undefined) ?
inactive

Short answer needed: outcome of this test for OCC(O)C(O)C(O)C(O)c1nnc2c(-c3ccccc3)nc3ccccc3n12 (centres undefined) ?
inactive

Short answer needed: outcome of this test for COc1ccc(C2NC(=S)NC3=C2CCOc2c3ccc3ccccc23)cc1 (centres undefined) ?
inactive

Short answer needed: outcome of this test for `COc1ccc(-c2cc(/C=C/C(=O)c3ccc(N)cc3)[nH]n2)cc1` ?
inactive

----------
Test system: HOP-92 NSCLC
Experiment: NCI tumour cell line growth inhibition, 48 h
Measurement type: GI50

Which GI50 value belongs to `CCOC(=O)/C(=C\c1ccc2ccccc2c1)P(=O)(OCC)OCC` ?
2440 nM

Which GI50 value belongs to `COc1cc(-c2nn(-c3cccc(NC(=O)CCN4CCN(c5ccccc5)CC4)c3)cc2-c2ccncc2)ccc1Cl` ?
2920 nM

Which GI50 value belongs to `CCOC(=O)c1c(NC(=O)c2ccc(Cl)cc2)sc2c(CN(C)C)c(O)ccc12` ?
1780 nM

Which GI50 value belongs to `CC1(C)N=C(N)N=C(N)N1c1cccc(CCc2ccccc2)c1` ?
2650 nM

Which GI50 value belongs to `CN(C)c1ccc(-c2ccc(-c3ccc(C(=N)N)cn3)o2)cc1` ?
1270 nM

Which GI50 value belongs to `CN1CC[C@H](c2c(O)cc(O)c3c(=O)cc(-c4ccccc4Cl)oc23)[C@H](O)C1` ?
69.3 nM

Which GI50 value belongs to `CC(=O)Oc1cc2cnc3c4cc(OC(C)=O)c(OC(C)=O)cc4ccc3c2cc1OC(C)=O` ?
538 nM

----------
Test system: SN12C renal
Test: NCI tumour cell line growth inhibition, 48 h; in the data active means GI50 below about 0.43 µM; inactive means the rest
Would you mind answering with one of these outcomes? yes (1) for active, no (0) for inactive

Short answer needed: outcome of this test for `COc1cc2c3c(n(CCCNCCCNCCCN)c(=O)c2cc1OC)-c1cc2c(cc1C3=O)OCO2` ?
no (0)

Short answer needed: outcome of this test for `Nc1nccc2c([N+](=O)[O-])cccc12` ?
no (0)

Short answer needed: outcome of this test for `COc1ccc(-c2cc(/C=C/C(=O)c3ccc(N)cc3)[nH]n2)cc1` ?
no (0)

Short answer needed: outcome of this test for C[As](C)SC1OCC(O)C(O)C1O (stereo not given) ?
yes (1)

Short answer needed: outcome of this test for OCC(O)C(O)C(O)C(O)c1nnc2c(-c3ccccc3)nc3ccccc3n12 (stereo not given) ?
no (0)

Short answer needed: outcome of this test for `COc1cc(-c2nn(-c3cccc(NC(=O)CCN4CCN(c5ccccc5)CC4)c3)cc2-c2ccncc2)ccc1Cl` ?
no (0)

Short answer needed: outcome of this test for `C#C[C@]1(O)CC[C@H]2[C@@H]3CC=C4c5nc(N)sc5CC[C@]4(C)[C@H]3CC[C@@]21C` ?
no (0)

Short answer needed: outcome of this test for `CC1(C)N=C(N)N=C(N)N1c1cccc(CCc2ccccc2)c1` ?
no (0)

Short answer needed: outcome of this test for CSC1=Nc2c(c(C)c(-c3ccccc3)n2COC(CO)CO)C2=NC(=O)CC(C)N12 (stereo not given) ?
no (0)

Short answer needed: outcome of this test for `Nc1ccccc1C#Cc1ccccc1C#Cc1cccs1` ?
no (0)

----------
System: NCI-H226 lung
Test: NCI tumour cell line growth inhibition, 48 h
Please go through the items and note down their TGI.

I'm curious: which TGI was measured for `CCOc1ccc(NC(=O)C(=O)Nn2c(N)nnc2N)cc1` tested on NCI-H226 lung?
> 100 µM

I'm curious: which TGI was measured for `O=C1NC(N/N=C\c2ccccc2)=N/C1=C/c1ccccc1` tested on NCI-H226 lung?
50.2 µM

I'm curious: which TGI was measured for CN1CCc2ccccc2C(C(=O)c2ccc3c(c2)OCO3)C1=O (stereo unspecified) tested on NCI-H226 lung?
> 100 µM

I'm curious: which TGI was measured for `COc1ccccc1-c1c(C#N)c(N)[nH]c(=S)c1C#N` tested on NCI-H226 lung?
> 100 µM

I'm curious: which TGI was measured for `Nc1nc(SCC(=O)c2ccc(Br)cc2)c2[nH]cnc2n1` tested on NCI-H226 lung?
> 100 µM

I'm curious: which TGI was measured for `COc1cc(-c2nn(-c3cccc(NC(=O)CCN4CCN(c5ccccc5)CC4)c3)cc2-c2ccncc2)ccc1Cl` tested on NCI-H226 lung?
> 100 µM

I'm curious: which TGI was measured for CC1(C)OC(=O)C(=C2CCC(C(=O)Nc3cccc(C(F)(F)F)c3)N2)C(=O)O1 (stereo unspecified) tested on NCI-H226 lung?
> 100 µM

I'm curious: which TGI was measured for `O=c1cccc(Cl)[nH]1` tested on NCI-H226 lung?
> 100 µM

I'm curious: which TGI was measured for `CCN(c1ccccc1)[C@H]1C(=O)N(c2ccc([N+](=O)[O-])cc2)[C@H]1c1ccc(OC)cc1` tested on NCI-H226 lung?
> 100 µM

I'm curious: which TGI was measured for `CCCc1nc2c(n1CC)C(=O)c1ccccc1C2=O` tested on NCI-H226 lung?
> 100 µM

I'm curious: which TGI was measured for O=C(O)CCCCC1CCSS1 (stereo unspecified) tested on NCI-H226 lung?
> 100 µM

----------
Test system: OVCAR-4 ovarian
Assay: NCI tumour cell line growth inhibition, 48 h
Please go through the items and note down their TGI.

Which TGI value belongs to `O=[N+]([O-])/C(Cl)=C(/C(Cl)=C(Cl)Cl)N1CCOCC1` ?
16.7 µM

Which TGI value belongs to `Nc1ccccc1C#Cc1ccccc1C#Cc1cccs1` ?
> 100 µM

Which TGI value belongs to `CC1=NN(c2nc(N)nc(/C(C#N)=C\c3ccc(-c4ccc([N+](=O)[O-])cc4)o3)n2)C(C)(C)C1` ?
> 100 µM

Which TGI value belongs to CC(=O)[C@H]1[C@H](O)C[C@@]2(C)[C@@H]3CCc4cc(O)c(OC5OC(CO)C(O)C(O)C5O)cc4C3(C)C(=O)C[C@]12C (stereo not given in full) ?
> 100 µM

Which TGI value belongs to `COc1cc2c(c(OC)c1OC)C(=O)NCCC2` ?
> 100 µM

----------
System: MDA-MB-435
Assay: NCI tumour cell line growth inhibition, 48 h
Measurement type: TGI

Which TGI value belongs to `Cc1ccc(C(=O)Oc2ccccc2)cc1N=NN(C)C` ?
> 100 µM

Which TGI value belongs to COc1cccc(C23CCN(C)C(CC(O)C2)C3)c1OC (stereo unspecified) ?
> 100 µM

Which TGI value belongs to COc1ccc(C2C3CCc4ccccc4C3=NN2S(=O)(=O)c2cccc(C(=O)O)c2OC)cc1 (stereo unspecified) ?
4.15 µM

Which TGI value belongs to Cc1ccc(C2CC(c3ccc(Nc4ccnc5cc(Cl)ccc45)cc3)=NN2C=O)cc1 (stereo unspecified) ?
> 100 µM

Which TGI value belongs to `COc1ccc2nc3ccc(OC)cc3c(SCCCl)c2c1` ?
> 49.5 µM

Which TGI value belongs to `O=C1NC(N/N=C\c2ccccc2)=N/C1=C/c1ccccc1` ?
> 100 µM
